# Tested on: HIV (Subtype B pseudoviral strain, PSGIII) in GHOST(3) cells
# Assay Comment: Targeted drug screen, Phenocopy Screen (drug before HIV infection) in GHOST(3) cells
# Condition Parameters: drug 24 h before infection, MOI 0.5, 48 hour; screened at 100 nM, 1 uM and 10 uM; GHOST(3) cells
Where a name gives a salt, the structure may show the parent alone.
Quantity: Effect (Phenocopy Screen)

Cn1nnc2c(C(N)=O)ncn2c1=O [Temozolomide]	Suppressed HIV^a
O=C1CCC(N2C(=O)c3ccccc3C2=O)C(=O)N1 (stereo not shown) [Thalidomide]	Suppressed HIV^a
CC[C@]1(O)C[C@H]2CN(CCc3c([nH]c4ccccc34)[C@@](C(=O)OC)(c3cc4c(cc3OC)N(C=O)[C@H]3[C@@](O)(C(=O)OC)[C@H](OC(C)=O)[C@]5(CC)C=CCN6CC[C@]43[C@@H]65)C2)C1 [Vincristine sulfate]	Suppressed HIV^a
